Data provenance: paper PMC9106665

Would you kindly list pKi for each of these compounds?
Assayed target: EcDHFR D27E/L28Q (Escherichia coli, UniProt P0ABQ4, D27E/L28Q)
Construct: using E. coli DHFR template previously synthesized by GeneScript
Assay remarks: Enzyme inhibition assay (NADPH oxidation, 340 nm)
The read-out pKi is expressed as -log10 of concentration in moles per litre.

// pKi value for CCc1nc(N)nc(N)c1C#CC(C)c1cc(-c2ccc(C(N)=O)cc2)ccc1Cl (centres unmarked) : 6.72

CCc1nc(N)nc(N)c1C#CC(C)c1cc2c(c(-c3ccc(CN)cc3)c1)OCO2 (centres unmarked) has a reported pKi of 6.73
